B1: MMP1 (parent)
chain: FVRGDHRDNSPFDGPGGNLAHAFQ

Variants of: B1
Test: protein stability index of a GFP-peptide fusion (GPS, HEK-293T) (PSI 1-6); higher = more stable;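 note: lentivirally expressed fusions sorted by FACS into six bins by GFP to DsRed ratio, PSI derived from sequencing read proportions per bin multiplied by bin number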
Settings: c terminus: a fixed tail appended
I would appreciate it if you labelled entries T when protein stability index is 2 or higher, otherwise F.

>>> print(df.to_string())
    mutations  category
 0        R7Q         T
 1        R7H         T
 2        R7G         F
 3       N18I         F
 4        V2H         T
 5        D5N         T
 6       N18Y         F
 7        F1R         T
 8       G14R         F
 9       H21P         F
10        G4H         T
11        N9D         F
12        R7W         T
13       N18P         T
14       D13H         T
15       H21S         T
16       L19H         F
17        D8P         T
18        F1K         T
19        G4W         F
20       H21Q         F
21       A20Q         F
22       A20P         F
23        N9Y         T
24       A22Q         F
25       F23A         F
26       G14P         F
27       P15N         T
28        R3C         T
29       D13M         F
30       N18H         F
31        G4F         T
32        F1V         T
33        R7S         F
34       G14W         F
35       F23M         T
36       F12V         F
37       L19M         T
38       A22V         F
39       F23G         T
40        N9W         T
41        G4L         F
42       G14Q         T
43       G17F         T
